# key: entry, value: EC50
RUN DESCRIPTION: Agonist activity at ER in human MCF7:WS8 cells assessed as increase in cell growth by measuring DNA level after 7 days by fluorescence analysis
// units = nM; emit number, no label

SUBSTANCE SMILES: CCC(=C(c1ccc(O)cc1)c1ccc(O)cc1)c1ccccc1
METRIC: EC50
ASSAY VALUE: 0.015

SUBSTANCE SMILES: CCOc1ccc2c(c1)CCCC(c1ccccc1)=C2c1ccc(O)cc1
METRIC: EC50
ASSAY VALUE: 2.7

SUBSTANCE SMILES: CN(C)CCOc1ccc2c(c1)CCCC(c1ccccc1)=C2c1ccc(O)cc1
METRIC: EC50
ASSAY VALUE: 15

Look up EC50: `COc1ccc2c(c1)CCCC(c1ccccc1)=C2c1ccc(O)cc1`
4

Look up EC50: `CNCCOc1ccc2c(c1)CCCC(c1ccccc1)=C2c1ccc(O)cc1`
20

Look up EC50: `CCOc1ccc(C2=C(c3ccccc3)CCCc3cc(O)ccc32)cc1`
0.3

Look up EC50: `CCC(=C(c1ccc(O)cc1)c1ccc(O)cc1)c1ccc(O)cc1`
0.15

Look up EC50: `COc1ccc(C2=C(c3ccccc3)CCCc3cc(O)ccc32)cc1`
0.3
